FYI, the data here is from patent US20230265192A1.

target_or_system: T1, His-tagged human CTLA-4 (CT4-H5229; Acro Biosystems) (human, UniProt P16410 36-161)
T1 construct: bought soluble protein; also called soluble human CTLA-4; recombinant human CTLA-4; not shown: His tag
T1 sequence (P16410 36-161 limits assumed): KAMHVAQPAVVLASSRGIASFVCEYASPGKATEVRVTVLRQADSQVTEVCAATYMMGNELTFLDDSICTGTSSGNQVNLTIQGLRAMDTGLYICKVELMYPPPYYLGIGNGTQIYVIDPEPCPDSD
assay_notes: SPR (Carterra), soluble human CTLA-4

# binder, kon (M⁻¹ s⁻¹)
records = [
    ("antibody A8 (L8H8) (antibody, V domains shown, also called aCTLA-4.1) VH: QVQLVESGGGVVQPGRSLRLSCAASGFTFSRYGMHWVRQAPGKGLEWVAVIWYDGRNKYYADSVKGRFTISRDNSKNTLYLQMNSLRAEDTALYSCARAGELGPFDYWGQGTLVTVSS VL: EIVLTQSPGTLSLSPGERATLSCRASQSVSYLAWYQQKPGQAPRLLIYGASSRATGIPDRFSGSGSGTDFTLTISRLEPEDFAVYYCQQYGSSPWTFGQGTKVEIK", 85000),
    ("antibody A4 (L4H4) (antibody, V domains shown, also called aCTLA-4.29) VH: QVQLVESGGGVVQPGRSLRISCAASGFTFSSYGIHWVRQAPGKGLQWVAVIWYDGRNKYYADSVKGRFTISRDNSKNTLYLQMNSLRAEDTAVYYCSRSGSFGAFDIWGQGTMVTVSS VL: EIVLTQSPGTLSLSPGDRATLSCRASQSGSSSYLAWYQQKPGQAPRLLIYGASSRATGIPDRFSGSGSGTDFTLTISRLEPEDFAVYYCQQYGTSPFTSGPGTKVDIK", 76000),
    ("antibody A1 (L1H1) (antibody, V domains shown, also called aCTLA-4.9; CTLA4.A1) VH: QVQLVESGGGVVQPGRSLRLSCAASGFTFSSFGMHWVRQAPGKGLEWVAVIWYDGRNKYYVDSVKGRFTISRDNSNNTLYLQMNSLRAEDTAVYYCARGEFFGEFFDYWGQGTLVTVSS VL: EIVLTQSPGTLSLSPGEGATLSCRASQSFSSNYLAWYQQKPGQAPRLLIYGASSRATGIPDRFSGSGSGTDFTLTISRLEPEDFAVYYCQQYGTSPFTFGPGTKVDIK", 210000),
    ("antibody A5 (L5H5) (antibody, V domains shown, also called aCTLA-4.28; CTLA4.A5) VH: QVQLVESGGGVVQPGRSLRLSCAASGFTFSSYGMHWVRQAPGKGLEWVAVIWYDGNNKYYADSVKGRFTISRDNSKNTLYLQMYSLRAEDTAVYYCARGGILAAGIFDYWGQGTLVTVSS VL: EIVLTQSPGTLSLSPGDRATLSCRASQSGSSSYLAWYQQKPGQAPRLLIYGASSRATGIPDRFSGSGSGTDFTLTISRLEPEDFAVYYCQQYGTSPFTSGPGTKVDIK", 90000),
]
